Data origin, for the record: paper PMC3312789

molecular target: HLA DRB1*0401 (Homo sapiens, UniProt P01903+P01911, A100K/A169T/F76Y/I96L/K127E/L162R/M171V/N62H/P40V/Q125Y/R42H/S133A/S149N/S66Y/V115G/V209L/W38E); experiment: In vitro HLA-DR peptide binding assay
Where no end group is shown, it is not given here.
Quantity measured: IC50 (µM)
Write the value in µM as a bare number.

query: Entry AYQQGVTVDSIG [24.2] : reported IC50 = ?
result: 0.212

query: Then what about the sequence YQQGVTVDSIGM [24.3] ?
result: 4.41

----------
target: HLA DRB1*0101 (Homo sapiens, UniProt P01903+P01911, A100R/D57E/F55L/F60I/F76Y/I96L/L162R/M171V/P40L/Q125E/R42F/V115G/Y59C); experiment: In vitro HLA-DR peptide binding assay
Where no end group is shown, it is not given here.
Quantity measured: IC50 (nM)
Write the value in nM as a bare number.

query: Entry APAAPANPGLII [34.2] : reported IC50 = ?
result: 1270

query: Then what about the sequence AYQQGVTVDSIG [24.2] ?
result: 471

query: Then what about the sequence HAPAAPANPGLI [34.1] ?
result: 3550

----------
Recorded IC50 by entry
biological target: HLA DRB1*0701 (Homo sapiens, UniProt P01903+P01911, A100R/A102G/A103Q/D57E/D86V/E43K/F76Y/K127E/L162R/M171V/P40G/Q125H/Q99D/R33Q/R42Y/R54Q/S133A/S66F/T210M/V115G/Y107V/Y59L/Y89S); assay: In vitro HLA-DR peptide binding assay
Where no end group is shown, it is not given here.

Solved cases below.
DPEDSALLEDPA [30.7]: > 5 µM
APAAPANPGLII [34.2]: > 5 µM

Could you now consider this next sequence?
query: Entry HAPAAPANPGLI [34.1] : reported IC50 = ?
result: > 5 µM

----------
Recorded pIC50 by entry
target: HLA DRB1*0401 (Homo sapiens, UniProt P01903+P01911, A100K/A169T/F76Y/I96L/K127E/L162R/M171V/N62H/P40V/Q125Y/R42H/S133A/S149N/S66Y/V115G/V209L/W38E); test: In vitro HLA-DR peptide binding assay
pIC50: −log10 of the molar value. Where no end group is shown, it is not given here.

Solved cases below.
APAAPANPGLII [34.2]: < 5.30
DPEDSALLEDPA [30.7]: < 5.30

query: Entry HAPAAPANPGLI [34.1] : reported pIC50 = ?
result: < 5.30
